system.tested: human FPR1 (Homo sapiens (Human), UniProt P21462)
Sequence (P21462 whole entry): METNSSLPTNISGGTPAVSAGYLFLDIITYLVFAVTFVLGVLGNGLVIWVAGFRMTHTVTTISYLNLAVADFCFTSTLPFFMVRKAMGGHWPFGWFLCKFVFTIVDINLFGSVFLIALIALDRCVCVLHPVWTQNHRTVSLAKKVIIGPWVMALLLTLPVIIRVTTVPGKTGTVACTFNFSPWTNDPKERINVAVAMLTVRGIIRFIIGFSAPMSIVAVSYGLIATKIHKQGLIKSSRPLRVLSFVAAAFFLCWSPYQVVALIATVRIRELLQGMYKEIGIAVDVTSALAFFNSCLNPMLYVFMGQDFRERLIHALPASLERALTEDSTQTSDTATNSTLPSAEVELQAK
protocol.description: FPR1 cyclic adenosine monophosphate (cAMP) assay
setup.conditions: CHO cells overexpressing human FPR1; forskolin 10 µM; inhibition of cAMP production; read-out: hFPR1 cAMP EC50
metric: pEC50
One number for each entry, as −log10 of the molar value.

*Q* Query for human FPR1 (Homo sapiens (Human), UniProt P21462): what pEC50 does the record show for COCC(CO)n1cccc(N2C[C@@H](c3ccc(OC)cc3)[C@H](NC(=O)c3ccc(Cl)cc3)C2=O)c1=O (stereo partly drawn) [Example 397] ?
*A* 7.82

For each listed entry, give its pEC50.
1. COCC(CO)n1ccc(C)c(N2C[C@@H](c3c(F)cc(OC)cc3F)[C@H](NC(=O)c3ccc(OC(F)F)cc3)C2=O)c1=O (stereo partly drawn) [Example 112]
2. COc1ccc([C@@H]2CN(c3c(C)ccn(CCC(F)(F)F)c3=O)C(=O)[C@H]2NC(=O)c2ccc(Cl)cc2)c(F)c1

*A*
1: 8.55; 2: 8.15

Reference source: patent US20230348426A1
